# ASSAY NOTES: Pharmacokinetic studies, intravenous, mice
# Assay type: in vivo, female NMRI mice
# COND: female, NMRI, mouse, serum, iv, single i.v. dose of 5 mg/ml
METRIC NAME: Cmax (µg/mL)

INSERT INTO assay_data (compound, measurement) VALUES
  ('COc1ccc(C(=O)/C=C/c2cc(-c3cc(C)cc(C)c3)ccc2OCC[N+](C)(C)C)c(Cl)c1.[I-] [D-001]', 126);

* * *

Read-out record for Enterococcus faecalis ATCC29212: MIC
METRIC NAME: MIC (µM)

INSERT INTO results (molecule, measurement) VALUES
  ('COc1ccc(C(=O)/C=C/c2cc(-c3cc(C)cc(C)c3)ccc2OCC[N+](C)(C)C)c(Cl)c1.[I-] [D-001]', 4.7),
  ('CN(C)CCOc1ccc(-c2ccccc2)cc1/C=C/C(=O)c1cccc(CN(C)C)c1 [SM012]', 18.8),
  ('Cc1cc(C)cc(-c2ccc(OCC[N+](C)(C)C)c(/C=C/C(=O)c3ccc(N)cc3)c2)c1 [D-002]', 18.8),
  ('COc1ccc(C(=O)/C=C/c2cc(-c3cc(C)cc(C)c3)ccc2OCCN(C)C)c(CN(C)C)c1 [SM013]', 4.7),
  ('Cc1cc(C)cc(-c2ccc(OCCN(C)C)c(/C=C/C(=O)c3ccccc3N)c2)c1 [SM009]', 9.4),
  ('C[N+](C)(C)CCOc1ccc(-c2ccccc2)cc1/C=C/C(=O)c1cccc(C[N+](C)(C)C)c1.[I-].[I-] [D-006]', 75),
  ('CCCCN(CCCC)c1ccc(/C=C/C(=O)c2cccc(CN(C)C)c2)cc1 [SM011]', 9.4);

* * *

MIC overview
# Tested on: Staphylococcus aureus ATCC33591 (resistant to methicillin)
# ASSAY NOTES: MIC determination in broth microdilution assay
# Assay type: cell-based
# COND: B: Staphylococcus aureus ATCC33591 (resistant to methicillin); MH-broth microdilution
METRIC NAME: MIC (µM)

INSERT INTO measurements (compound, tested_on, metric_name, value_unit, measurement) VALUES
  ('Cc1cc(C)cc(-c2ccc(OCCN(C)C)c(/C=C/C(=O)c3ccccc3N)c2)c1 [SM009]', 'Staphylococcus aureus ATCC33591 (resistant to methicillin)', 'MIC', 'µM', 4.7),
  ('COc1ccc(C(=O)/C=C/c2cc(-c3cc(C)cc(C)c3)ccc2OCC[N+](C)(C)C)c(Cl)c1.[I-] [D-001]', 'Staphylococcus aureus ATCC33591 (resistant to methicillin)', 'MIC', 'µM', 4.7),
  ('COc1ccc(C(=O)/C=C/c2cc(-c3cc(C)cc(C)c3)ccc2OCCN(C)C)c(CN(C)C)c1 [SM013]', 'Staphylococcus aureus ATCC33591 (resistant to methicillin)', 'MIC', 'µM', 9.4),
  ('COc1ccc(C(=O)/C=C/c2cc(-c3ccccc3OC)ccc2N2CC[N+](C)(C)CC2)c(F)c1 [D-004]', 'Staphylococcus aureus ATCC33591 (resistant to methicillin)', 'MIC', 'µM', 9.4),
  ('CCCCN(CCCC)c1ccc(/C=C/C(=O)c2cccc(C[N+](C)(C)C)c2)cc1 [D-005]', 'Staphylococcus aureus ATCC33591 (resistant to methicillin)', 'MIC', 'µM', 9.4),
  ('Cc1cc(C)cc(-c2ccc(OCC[N+](C)(C)C)c(/C=C/C(=O)c3ccccc3N)c2)c1.[I-] [D-003]', 'Staphylococcus aureus ATCC33591 (resistant to methicillin)', 'MIC', 'µM', 4.7),
  ('COc1ccc(C(=O)/C=C/c2cc(-c3ccccc3OC)ccc2N2CCN(C)CC2)c(F)c1 [SM010]', 'Staphylococcus aureus ATCC33591 (resistant to methicillin)', 'MIC', 'µM', 9.4),
  ('Cc1cc(C)cc(-c2ccc(OCCN(C)C)c(/C=C/C(=O)c3ccc(N)cc3)c2)c1 [SM008]', 'Staphylococcus aureus ATCC33591 (resistant to methicillin)', 'MIC', 'µM', 9.4),
  ('C=CC(C)(C)c1cc(/C=C/C(=O)c2ccc(O)cc2)c(OC)cc1O [LicA, Licochalcone A]', 'Staphylococcus aureus ATCC33591 (resistant to methicillin)', 'MIC', 'µM', 37.5),
  ('CCCCN(CCCC)c1ccc(/C=C/C(=O)c2cccc(CN(C)C)c2)cc1 [SM011]', 'Staphylococcus aureus ATCC33591 (resistant to methicillin)', 'MIC', 'µM', 9.4),
  ('COc1ccc(C(=O)/C=C/c2cc(-c3cc(C)cc(C)c3)ccc2OCCN(C)C)c(Cl)c1 [SM007]', 'Staphylococcus aureus ATCC33591 (resistant to methicillin)', 'MIC', 'µM', 4.7),
  ('COc1ccc(C(=O)/C=C/c2cc(-c3cc(C)cc(C)c3)ccc2OCC[N+](C)(C)C)c(C[N+](C)(C)C)c1.[I-].[I-] [D-007]', 'Staphylococcus aureus ATCC33591 (resistant to methicillin)', 'MIC', 'µM', 18.8),
  ('C[N+](C)(C)CCOc1ccc(-c2ccccc2)cc1/C=C/C(=O)c1cccc(C[N+](C)(C)C)c1.[I-].[I-] [D-006]', 'Staphylococcus aureus ATCC33591 (resistant to methicillin)', 'MIC', 'µM', 18.8),
  ('Cc1cc(C)cc(-c2ccc(OCC[N+](C)(C)C)c(/C=C/C(=O)c3ccc(N)cc3)c2)c1 [D-002]', 'Staphylococcus aureus ATCC33591 (resistant to methicillin)', 'MIC', 'µM', 9.4),
  ('CN(C)CCOc1ccc(-c2ccccc2)cc1/C=C/C(=O)c1cccc(CN(C)C)c1 [SM012]', 'Staphylococcus aureus ATCC33591 (resistant to methicillin)', 'MIC', 'µM', 18.8);
